Target or system memapsin 2 (Homo sapiens); recorded quantity Ki.

compound="CC(C)CC(NC(=O)c1cc(C(=O)NC(C)c2ccccc2)cc(N(C)S(C)(=O)=O)c1)C(O)CC(C)C(=O)NC(C(=O)NCC1CCCN1C)C(C)C (centres unmarked)" reported_value="< 405 nM"
compound="Cc1cc(C(=O)NC(CC(C)C)C(O)CC(C)C(=O)NC(C(=O)NCC(C)C)C(C)C)cc(C(=O)N(C)Cc2nc(C)cs2)c1 (centres unmarked)" reported_value="< 405 nM"
compound="CCCNC(=O)c1cc(C(=O)NC(CC(C)C)C(O)CC(C)C(=O)NC(C(=O)NC(C)C)C(C)C)cc(N(C)S(C)(=O)=O)c1 (centres unmarked)" reported_value="< 405 nM"
compound="CCCN(CCC)C(=O)c1cccc(C(=O)N[C@@H](CC(C)C)[C@@H](O)C[C@@H](C)C(=O)NC(C(=O)NCC(C)C)C(C)C)c1 (stereo in doubt)" reported_value="< 405 nM"
compound="CC(C)CNC(=O)C(NC(=O)C(C)CC(O)C(CC(C)C)NC(=O)c1cc(C(=O)N(C)Cc2ccccc2)cc(N(C)S(C)(=O)=O)c1)C(C)C (centres unmarked)" reported_value="< 405 nM"

For each entry beneath this line, provide reported Ki.
1. CC(C)CC(NC(=O)c1cc(C(=O)NC(C)c2ccccc2)cc(N(C)S(C)(=O)=O)c1)C(O)CC(C)C(=O)NC(C(=O)NCC1CN(C)C1)C(C)C (centres unmarked)
2. CCN(Cc1ccncc1)C(=O)c1cncc(C(=O)NC(CC(C)C)C(O)CC(C)C(=O)NC(C(=O)NCC(C)C)C(C)C)c1 (centres unmarked)
3. Cc1ccc(CN(C)C(=O)c2cccc(C(=O)NC(CC(C)C)C(O)CC(C)C(=O)NC(C(=O)NCC(C)C)C(C)C)c2)o1 (centres unmarked)
4. CCc1csc(CN(C)C(=O)c2cccc(C(=O)NC(CC(C)C)C(O)CC(C)C(=O)NC(C(=O)NCC(C)C)C(C)C)c2)n1 (centres unmarked)
5. CC(C)CC(NC(=O)c1cc(C(=O)NC(C)c2ccccc2)cc(N(C)S(C)(=O)=O)c1)C(O)CC(C)C(=O)NC(C(=O)NCc1ccncc1)C(C)C (centres unmarked)
6. CC(C)CNC(=O)C(NC(=O)C(C)CC(O)C(CC(C)C)NC(=O)c1cccc(C(=O)N(C)Cc2cnccn2)c1)C(C)C (centres unmarked)
7. CC(C)CC(NC(=O)c1cc(C(=O)NC(C)c2ccccc2)cc(N(C)S(C)(=O)=O)c1)C(O)CC(C)C(=O)NC(C)C (centres unmarked)
8. CC(C)CNC(=O)C(NC(=O)C(C)CC(O)C(CC(C)C)NC(=O)c1cccc(C(=O)N(C)Cc2nccn2C)c1)C(C)C (centres unmarked)

OUT:
1: < 405 nM; 2: > 5000 nM; 3: < 405 nM; 4: < 405 nM; 5: < 405 nM; 6: 405 to 2000 nM; 7: 405 to 2000 nM; 8: > 5000 nM

IN: // lookup Ki for Cc1csc(CN(C)C(=O)c2cncc(C(=O)NC(CC(C)C)C(O)CC(C)C(=O)NC(C(=O)NCC(C)C)C(C)C)c2)n1 (centres unmarked)
OUT: < 405 nM
